Target: T1, B3GNT2 (Homo sapiens, UniProt Q9NY97)
T1 construct: The respective ORFs of candidate genes [CD274 (NM_014143), MCL1 (NM_021960), JUNB (NM_002229), and B3GNT2 (NM_006577)] were synthesized; expressed in transfected cells; host or cells: A375 melanoma cells (lentiviral ORF overexpression)
T1 sequence (Q9NY97 1-397): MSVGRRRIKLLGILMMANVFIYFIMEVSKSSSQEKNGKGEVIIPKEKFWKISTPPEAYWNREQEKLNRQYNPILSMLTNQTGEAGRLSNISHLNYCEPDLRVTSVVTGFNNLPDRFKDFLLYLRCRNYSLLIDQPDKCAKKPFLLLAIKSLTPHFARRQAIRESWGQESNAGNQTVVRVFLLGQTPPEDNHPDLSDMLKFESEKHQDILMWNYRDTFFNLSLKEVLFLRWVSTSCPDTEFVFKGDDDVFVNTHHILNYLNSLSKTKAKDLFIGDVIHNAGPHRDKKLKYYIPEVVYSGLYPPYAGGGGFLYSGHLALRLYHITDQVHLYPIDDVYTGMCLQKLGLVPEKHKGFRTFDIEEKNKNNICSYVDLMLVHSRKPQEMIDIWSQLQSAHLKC
Experiment: Co-IP of FLAG-tagged B3GNT2 followed by mass spectrometry
Assay type: cell-based
Details: Co-IP with FLAG antibody, N-terminally FLAG-tagged B3GNT2; mass spectrometry count, unit not given
observable: N-term FLAG
API doc: respond with a numeric literal and nothing else, no unit.

Lookup result for SLC25A4 (protein) GDHAWSFLKDFLAGGVAAAVSKTAVAPIERVKLLLQVQHASKQISAEKQYKGIIDCVVRIPKEQGFLSFWRGNLANVIRYFPTQALNFAFKDKYKQLFLGGVDRHKQFWRYFAGNLASGGAAGATSLCFVYPLDFARTRLAADVGKGAAQREFHGLGDCIIKIFKSDGLRGLYQGFNVSVQGIIIYRAAYFGVYDTAKGMLPDPKNVHIFVSWMIAQSVTAVAGLVSYPFDTVRRRMMMQSGRKGADIMYTGTVDCWRKIAKDEGAKAFFKGAWSNVLRGMGGAFVLVLYDEIKKYV ; measured N-term FLAG: 9

Lookup result for CHCHD6 (protein) GSTESSEGRRVSFGVDEEERVRVLQGVRLSENVVNRMKEPSSPPPAPTSSTFGLQDGNLRAPHKESTLPRSGSSGGQQPSGMKEGVKRYEQEHAAIQDKLFQVAKREREAATKHSKASLPTGEGSISHEEQKSVRLARELESREAELRRRDTFYKEQLERIERKNAEMYKLSSEQFHEAASKMESTIKPRRVEPVCSGLQAQILHCYRDRPHEVLLCSDLVKAYQRCVSAAHKG ; measured N-term FLAG: 0

Lookup result for HNRNPA1 (protein) SKSESPKEPEQLRKLFIGGLSFETTDESLRSHFEQWGTLTDCVVMRDPNTKRSRGFGFVTYATVEEVDAAMNARPHKVDGRVVEPKRAVSREDSQRPGAHLTVKKIFVGGIKEDTEEHHLRDYFEQYGKIEVIEIMTDRGSGKKRGFAFVTFDDHDSVDKIVIQKYHTVNGHNCEVRKALSKQEMASASSSQRGRSGSGNFGGGRGGGFGGNDNFGRGGNFSGRGGFGGSRGGGGYGGSGDGYNGFGNDGGYGGGGPGYSGGSRGYGSGGQGYGNQGSGYGGSGSYDSYNNGGGGGFGGGSGSNFGGGGSYNDFGNYNNQSSNFGPMKGGNFGGRSSGPYGGGGQYFAKPRNQGGYGGSSSSSSYGSGRRF ; measured N-term FLAG: 7

Lookup result for SLC25A3 (protein) AVEEQYSCDYGSGRFFILCGLGGIISCGTTHTALVPLDLVKCRMQVDPQKYKGIFNGFSVTLKEDGVRGLAKGWAPTFLGYSMQGLCKFGFYEVFKVLYSNMLGEENTYLWRTSLYLAASASAEFFADIALAPMEAAKVRIQTQPGYANTLRDAAPKMYKEEGLKAFYKGVAPLWMRQIPYTMMKFACFERTVEALYKFVVPKPRSECSKPEQLVVTFVAGYIAGVFCAIVSHPADSVVSVLNKEKGSSASLVLKRLGFKGVWKGLFARIIMIGTLTALQWFIYDSVKVYFRLPRPPPPEMPESLKKKLGLTQ ; measured N-term FLAG: 4

Lookup result for SMN1 (protein) AMSSGGSGGGVPEQEDSVLFRRGTGQSDDSDIWDDTALIKAYDKAVASFKHALKNGDICETSGKPKTTPKRKPAKKNKSQKKNTAASLQQWKVGDKCSAIWSEDGCIYPATIASIDFKRETCVVVYTGYGNREEQNLSDLLSPICEVANNIEQNAQENENESQVSTDESENSRSPGNKSDNIKPKSAPWNSFLPPPPPMPGPRLGPGKPGLKFNGPPPPPPPPPPHLLSCWLPPFPSGPPIIPPPPPICPDSLDDADALGSMLISWYMSGYHTGYYMEMLA ; measured N-term FLAG: 10

Lookup result for DNAJA3 (protein) GVSLTGTKHNPFICTASFHTSAPLAKEDYYQILGVPRNASQKEIKKAYYQLAKKYHPDTNKDDPKAKEKFSQLAEAYEVLSDEVKRKQYDAYGSAGFDPGASGSQHSYWKGGPTVDPEELFRKIFGEFSSSSFGDFQTVFDQPQEYFMELTFNQAAKGVNKEFTVNIMDTCERCNGKGNEPGTKVQHCHYCGGSGMETINTGPFVMRSTCRRCGGRGSIIISPCVVCRGAGQAKQKKRVMIPVPAGVEDGQTVRMPVGKREIFITFRVQKSPVFRRDGADIHSDLFISIAQALLGGTARAQGLYETINVTIPPGTQTDQKIRMGGKGIPRINSYGYGDHYIHIKIRVPKRLTSRQQSLILSYAEDETDVEGTVNGVTLTSSGKRSTGN ; measured N-term FLAG: 0

Lookup result for CTHRC1 (protein) MWPPGRSITVKLREKTVSRKLEMNGPSAFQGLICGKYNGMCLQGPAGVPGRDGSPGANGIPGTPGIPGRDGFKGEKGECLRESFEESWTPNYKQCSWSSLNYGIDLGKIAECTFTKMRSNSALRVLFSGSLRLKCRNACCQRWYFTFNGAECSGPLPIEAIIYLDQGSPEMNSTINIHRTSSVEGLCEGIGAGLVDVAIWVGTCSDYPKGDASTGWNSVSRIIIEELPK ; measured N-term FLAG: 0

Lookup result for SFXN3 (protein) MGELPLDINIQEPRWDQSTFLGRARHFFTVTDPRNLLLSGAQLEASRNIVQNYRAGVVTPGITEDQLWRAKYVYDSAFHPDTGEKVVLIGRMSAQVPMNMTITGCMLTFYRKTPTVVFWQWVNQSFNAIVNYSNRSGDTPITVRQLGTAYVSATTGAVATALGLKSLTKHLPPLVGRFVPFAAVAAANCINIPLMRQRELQVGIPVADEAGQRLGYSVTAAKQGIFQVVISRICMAIPAMAIPPLIMDTLEKKDFLKRRPWLGAPLQVGLVGFCLVFATPLCCALFPQKSSIHISNLEPELRAQIHEQNPSVEVVYYNKGL ; measured N-term FLAG: 0
